target: D2 dopaminergic receptors (Homo sapiens); assay: Cellular functional assay, D2 dopaminergic receptors; format: cell-based; conditions: antagonism, D2S (h), HEK-293 cells, stimulus dopamine (30 nM)
Sequence (P14416 whole entry): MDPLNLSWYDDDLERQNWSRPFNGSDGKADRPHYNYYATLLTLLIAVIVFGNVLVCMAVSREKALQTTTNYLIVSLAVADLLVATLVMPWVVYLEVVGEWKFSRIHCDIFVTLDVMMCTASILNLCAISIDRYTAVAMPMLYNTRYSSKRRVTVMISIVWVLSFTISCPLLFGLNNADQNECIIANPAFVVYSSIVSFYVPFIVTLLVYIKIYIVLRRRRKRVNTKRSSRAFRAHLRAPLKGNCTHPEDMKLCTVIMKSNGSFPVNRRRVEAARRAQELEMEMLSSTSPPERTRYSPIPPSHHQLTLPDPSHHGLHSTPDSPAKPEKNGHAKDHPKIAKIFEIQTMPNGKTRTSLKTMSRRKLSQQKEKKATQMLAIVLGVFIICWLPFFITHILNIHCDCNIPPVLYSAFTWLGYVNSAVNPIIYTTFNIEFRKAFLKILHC
measured attribute: D2 antag [%]

> print(dat)
                                    compound  val
 1  Cc1cc(S(=O)(=O)N[C@@H]2CCN(CCCc3noc4cc(F)ccc34)C2)c(C)s1 [Compound 222]  65%
 2  Cc1c(S(=O)(=O)NC2CCN(CCCc3noc4cc(F)ccc34)C2)sc2ccc(F)cc12 (stereo not shown) [Compound 28]  87%
 3  O=S(=O)(N[C@H]1CCN(CCCc2noc3cc(F)ccc23)C1)c1cc2ccccc2o1 [Compound 215]  91%
 4  O=S(=O)(NCC1CCN(CCCc2noc3cc(F)ccc23)C1)c1cccc2ccccc12 (stereo not shown) [Compound 239]  56%
 5  Cc1c(S(=O)(=O)NCC2CN(CCCc3noc4cc(F)ccc34)C2)sc2ccc(Cl)cc12 [Compound 131]  20%
 6  O=S(=O)(NC1CCN(CCCc2noc3cc(F)ccc23)C1)c1cc2ccc(F)cc2s1 (stereo not shown) [Compound 234]  91%
 7  O=S(=O)(NC1CCN(CCCc2noc3cc(F)ccc23)C1)c1cc2ccccc2s1 (stereo not shown) [Compound 25]  89%
 8  COc1ccc2cc(S(=O)(=O)N[C@@H]3CCN(CCCc4noc5cc(F)ccc45)C3)ccc2c1 [Compound 230]  94%
 9  O=S(=O)(NC1CCN(CCCc2noc3cc(F)ccc23)C1)c1ccc2ccccc2c1 (stereo not shown) [Compound 21]  98%
10  O=S(=O)(NC1CCN(CCCc2noc3cc(F)ccc23)C1)c1ccc2cc(Cl)ccc2c1 (stereo not shown) [Compound 23]  87%
11  O=S(=O)(NCC1CN(CCOc2cccc3ccccc23)C1)c1ccc2ccccc2c1 [Compound 122]  62%
12  COc1ccc2cc(S(=O)(=O)N[C@H]3CCN(CCCc4noc5cc(F)ccc45)C3)ccc2c1 [Compound 231]  49%
13  O=S(=O)(N[C@@H]1CCN(CCCc2noc3cc(F)ccc23)C1)c1csc2ccccc12 [Compound 224]  57%
14  O=S(=O)(N[C@@H]1CCN(CCCc2noc3cc(F)ccc23)C1)c1cc2ccccc2s1 [Compound 196]  95%
15  COc1ccc2cc(S(=O)(=O)NC3CCN(CCCc4noc5cc(F)ccc45)C3)ccc2c1 (stereo not shown) [Compound 227]  99%
16  O=S(=O)(N[C@@H]1CCN(CCCc2noc3cc(F)ccc23)C1)c1cc2ccccc2o1 [Compound 214]  89%

* * *

system: α1 adrenergic receptors (rat cerebral cortex); assay: Radioligand binding assay, adrenergic α1 receptors; conditions: test compound 1×10^−6 M
measured attribute: α1 [%] (%)

> print(dat)
                                   compound  measured.attribute  unit.spec  val
1  O=S(=O)(NC1CCN(CCOc2cccc3c2OCCO3)CC1)c1cccc2ccccc12              α1 [%]          %   87
2  Cc1cccc(S(=O)(=O)NC2CCN(CCOc3cccc4[nH]ccc34)C2)c1 (stereo not shown)              α1 [%]          %   81
3  O=S(=O)(NCC1CCN(CCCc2noc3cc(F)ccc23)C1)c1ccc2cc(Cl)ccc2c1 (stereo not shown)              α1 [%]          %   88
4  Cn1ccc2c(S(=O)(=O)NCC3CN(CCOc4cccc5ccccc45)C3)cccc21              α1 [%]          %   63
